- target.desc: human LXRα (Homo sapiens, UniProt Q13133)
- Sequence (Q13133 1-447): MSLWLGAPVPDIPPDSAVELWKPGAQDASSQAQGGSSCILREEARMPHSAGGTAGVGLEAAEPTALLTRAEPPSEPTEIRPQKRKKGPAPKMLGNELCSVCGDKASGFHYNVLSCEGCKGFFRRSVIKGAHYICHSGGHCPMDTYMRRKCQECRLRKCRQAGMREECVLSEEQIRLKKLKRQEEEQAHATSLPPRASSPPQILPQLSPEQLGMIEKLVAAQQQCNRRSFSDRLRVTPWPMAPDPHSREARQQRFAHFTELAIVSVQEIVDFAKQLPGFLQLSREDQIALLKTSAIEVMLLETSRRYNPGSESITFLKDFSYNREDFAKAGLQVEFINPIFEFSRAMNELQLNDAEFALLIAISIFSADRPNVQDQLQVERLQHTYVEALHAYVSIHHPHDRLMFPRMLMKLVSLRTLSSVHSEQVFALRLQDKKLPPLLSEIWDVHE
measured.property: IC50 (µM)
Numeric answer only, unit µM assumed.

*Q* Requested field: IC50. Item: CCS(=O)(=O)c1ccc(Oc2cccc(-n3c(C)nc4c(Cl)cccc43)c2)cc1
*A* 0.085

*Q* Which IC50 value is on record for CCc1nc2c(C(F)(F)F)cccc2n1-c1ccc(Oc2cccc(S(C)(=O)=O)c2)cc1 ?
*A* 0.197

*Q* Tell me the measured IC50 of Cc1nc2c(C(F)(F)F)cccc2n1-c1cccc(-c2cccc(S(C)(=O)=O)c2)c1 , please.
*A* 0.304

*Q* Value lookup for IC50; key = CCS(=O)(=O)c1cc(F)cc(Oc2ccc(-n3cnc4c(C(F)(F)F)cccc43)c(C)c2)c1
*A* 8

*Q* Look up IC50 for this compound: Cc1cc(Oc2cccc(S(=O)(=O)C(C)C)c2)ccc1-n1cnc2c(C(F)(F)F)cccc21
*A* 3.26

*Q* Dear colleague, I am looking for the recorded IC50 of the following compound: CCc1nc2c(C(F)(F)F)cccc2n1-c1ccc(OCc2cccc(S(C)(=O)=O)c2)cc1
*A* 5.07

*Q* Would you kindly share the measured IC50 for CS(=O)(=O)c1cccc(Oc2cccc(-n3c(C(F)F)nc4c(C(F)(F)F)cccc43)c2)c1 ?
*A* 0.036

*Q* Sample CCCc1nc2c(C(F)(F)F)cccc2n1-c1cccc(Oc2cccc(S(C)(=O)=O)c2)c1 — what was its IC50?
*A* 0.0039

*Q* I would be grateful if you could share the reported IC50 for CC(C)S(=O)(=O)c1cccc(Oc2ccc(-n3c(C(F)(F)F)nc4c(C(F)(F)F)cccc43)cc2)c1 .
*A* 0.8

*Q* Tell me the measured IC50 of Cc1nc2c(C(F)(F)F)cccc2n1-c1ccc(Oc2cccc(S(C)(=O)=O)c2)cc1Cl , please.
*A* 1.96

*Q* I am curious: what IC50 value has been reported for CCCS(=O)(=O)c1cccc(Oc2cccc(-n3c(C)nc4c(Cl)cccc43)c2)c1 ?
*A* 0.014

*Q* Given the compound Cc1cc(Oc2ccc(S(C)(=O)=O)cc2)ccc1-n1c(C)nc2c(C(F)(F)F)cccc21 , what is its reported IC50?
*A* 12

*Q* IC50 for Cc1cc(Oc2cccc(S(=O)(=O)C(C)C)c2)ccc1-n1c(C)nc2c(C(F)(F)F)cccc21 ?
*A* 1.29

*Q* Which IC50 value belongs to CS(=O)(=O)c1ccc(Oc2ccc(Cl)c(-n3cnc4c(C(F)(F)F)cccc43)c2)cc1 ?
*A* 0.277

*Q* So what does the record say about IC50 for Cc1nc2c(C(F)(F)F)cccc2n1-c1cccc(Oc2cccc(S(=O)(=O)C3CC3)c2)c1 ?
*A* 0.141
